B1: library; numbered along this chain (parent)
chain: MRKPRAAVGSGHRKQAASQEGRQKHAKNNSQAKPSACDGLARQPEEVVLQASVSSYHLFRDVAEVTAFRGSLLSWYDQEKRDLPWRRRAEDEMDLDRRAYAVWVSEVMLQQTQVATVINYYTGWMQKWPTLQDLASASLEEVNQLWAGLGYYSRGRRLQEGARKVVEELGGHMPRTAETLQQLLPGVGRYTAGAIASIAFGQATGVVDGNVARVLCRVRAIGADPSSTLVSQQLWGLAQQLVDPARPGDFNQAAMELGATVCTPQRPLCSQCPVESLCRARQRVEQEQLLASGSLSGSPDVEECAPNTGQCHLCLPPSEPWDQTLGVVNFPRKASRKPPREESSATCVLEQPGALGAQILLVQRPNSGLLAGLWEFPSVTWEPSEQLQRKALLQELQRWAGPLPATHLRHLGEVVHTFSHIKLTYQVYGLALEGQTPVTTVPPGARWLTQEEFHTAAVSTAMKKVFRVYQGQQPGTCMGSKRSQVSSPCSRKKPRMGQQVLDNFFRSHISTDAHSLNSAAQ

Variants of: B1
Assay: 8OG:A repair function score (normalized; synonymous = 0, nonsense = -1) (normalized log-likelihood score); higher = more repair activity (WT-like);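 also: cells sorted at 72 h after reporter transfection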
Conditions: with 8OG:A DNA repair reporter (GFP) in HEK-293 MUTYH KO cells
We begin with a simple list: items and their reported 8OG:A repair function score.

Consider the worked cases shown below.
{"columns": ["mutation list", "measured quantity", "observed"],
 "data": [
  ["T476R", "8OG:A repair function score", -0.0215],
  ["L139N", "8OG:A repair function score", 0.213],
  ["D61R", "8OG:A repair function score", -0.037],
  ["R364K", "8OG:A repair function score", -0.245],
  ["P352A", "8OG:A repair function score", -0.0351]
]}

# input Given S343N , respond with its 8OG:A repair function score.
# output -0.0331

# input Given L411C , respond with its 8OG:A repair function score.
# output 0.0617

# input Given Q358M , respond with its 8OG:A repair function score.
# output -0.074

# input Given L392A , respond with its 8OG:A repair function score.
# output -0.807
